- Tested on: U2OS
- PROTOCOL: Multiplex assay against U2OS
- Format: toxicity, cell-based
- MEASUREMENT_CONDITIONS: human, 12 h, 10 µM, compound concentration 10 uM, replicate 2
PARAMETER_MEASURED: Population Normal (%)
Hi! Could you send only the number? It should be in %, unit omitted.

# count of solved cases: 3
                                   compound  measurement
0  Cc1ccccc1C(=O)Nc1ccc(C(=O)N2CCCC(N(C)C)c3ccccc32)cc1.Cl (centres undefined)           98
1        Cc1ccc(/C(=C\CN2CCCC2)c2ccccn2)cc1           99
2                           CCCC(CCC)C(=O)O          100

--- query ---
Param request: Population Normal (%) | system U2OS | item CSc1ccccc1N1CCN(CCCCCC(=O)NC2CCCc3ccccc32)CC1.Cl (centres undefined)
95
